- assay target: Human PD-L1/PD-1 (Homo sapiens, UniProt Q9NZQ7)
- Construct: made in house; host or cells: HEK293T
- Sequence (Q9NZQ7 with tags, fused parts or gaps): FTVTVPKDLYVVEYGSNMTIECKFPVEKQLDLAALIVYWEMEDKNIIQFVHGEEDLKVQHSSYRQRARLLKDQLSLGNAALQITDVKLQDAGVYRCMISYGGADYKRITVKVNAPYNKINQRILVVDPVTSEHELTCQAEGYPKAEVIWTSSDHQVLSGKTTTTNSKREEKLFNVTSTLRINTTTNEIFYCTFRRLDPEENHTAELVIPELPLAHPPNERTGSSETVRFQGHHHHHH
- assay explanation: HTRF PD-1-Ig/PD-L1-His binding assay (human PD-L1)
- assay setup: cluster symbol; read-out: HTRF IC50 cluster
pIC50: −log10 of the molar value. Positions of bridges follow the written chain, without caps; N, C: chain ends. Non-standard residues stand in square brackets, D forms with d. Residues, ends and D or L forms follow the SMILES beside them. ξ: configuration not given here. Bta = N[C@@H](Cc1csc2ccccc12)C(=O)O; NMeF = CN[C@@H](Cc1ccccc1)C(=O)O; NMeNle = CCCC[C@H](NC)C(=O)O; NMeA = CN[C@@H](C)C(=O)O; dNMeA = CN[C@H](C)C(=O)O; ξC = NC(CS)C(=O)O; Sar = CNCC(=O)O
readout type: pIC50

>>> result("CCCC[C@H]1C(=O)N(C)[C@@H](C)C(=O)N[C@@H](CCCNC(=N)N)C(=O)NC(C(=O)NCC(N)=O)CSCC(=O)N[C@@H](Cc2ccc(O)cc2)C(=O)N(C)[C@@H](C)C(=O)N[C@@H](CC(N)=O)C(=O)N2CCC[C@H]2C(=O)N[C@@H](CO)C(=O)N[C@@H](CC(C)C)C(=O)N2CCC[C@H]2C(=O)N[C@@H](Cc2c[nH]c3ccccc23)C(=O)N[C@@H](CO)C(=O)N[C@@H](Cc2csc3ccccc23)C(=O)N1C (some centres unmarked) [Example 9111] ({CH2CO}-Y[NMeA]NPSLPWS[Bta][NMeNle][NMeA]R[ξC]G-NH2; thioether N-14)")
"8.17 to 9.41"

Please look at the following compound next.
Req: Entry CCCC[C@H]1C(=O)N(C)CC(=O)N[C@@H](CC(=O)O)C(=O)N[C@@H](C(C)C)C(=O)N(C)[C@@H](Cc2ccccc2)C(=O)N[C@@H](Cc2ccc(O)cc2)C(=O)N(C)[C@H](C)C(=O)N[C@@H](Cc2c[nH]c3ccccc23)C(=O)N[C@@H](Cc2ccc(O)cc2)C(=O)N[C@@H](CC(C)C)C(=O)N[C@H](C(=O)NCC(N)=O)CSCC(=O)N[C@@H](Cc2ccccc2)C(=O)N(C)[C@@H](Cc2ccccc2)C(=O)N1C [Example 3551] ({CH2CO}-F[NMeF][NMeNle][Sar]DV[NMeF]Y[dNMeA]WYLCG-NH2; thioether N-13) , system Human PD-L1/PD-1 (Homo sapiens, UniProt Q9NZQ7): what pIC50 was measured?
Resp: 7.52 to 8.17

Reference source: patent US9850283B2
